Tested on: goosegrass
experimental details: Test C pre-/postemergence herbicide test
Assay type: in vivo, Eleusine indica
condition context: 250 g ai/ha; scale 0-100; preemergence
test readout: Plant response rating, Goosegrass

In the examples that follow, each entry is paired with its recorded Plant response rating, Goosegrass.
- compound: "CCNC(=S)c1cccc(NC(=O)c2nn(C(C)(C)C)nc2C)c1 [Compound 420]"
  Plant response rating, Goosegrass: 100
- compound: "CCNC(=O)c1ccc(F)c(NC(=O)C2CC(C(C)(C)C)=NN2CC)c1 (racemic) [Compound 269]"
  Plant response rating, Goosegrass: 95
- compound: "CCN(CC)C(=O)c1cccc(NC(=O)c2cc(C(C)(C)C)nn2C)n1 [Compound 314]"
  Plant response rating, Goosegrass: 65
- compound: "CCc1nc(C(C)(C)C)sc1C(=O)Nc1cccc(C(=O)NCC2CC2)c1 [Compound 212]"
  Plant response rating, Goosegrass: 95

Attention now shifts to the item below.
Form field Plant response rating, Goosegrass, entry CCn1nc(C(C)(C)C)cc1C(=O)Nc1cc(C(=O)N(C)OC)ccc1F [Compound 244] : 100

---

Below, each entry is listed with its recorded Plant response rating, Corn.
Test system: corn
experimental details: Test C pre-/postemergence herbicide test
Type: in vivo, Zea mays
condition context: 62 g ai/ha; preemergence; scale 0 to 100
Hey, just send me the number, nothing else.

- smiles str: "C=CCNC(=O)c1cccc(NC(=O)c2nn(C(C)C)nc2CC)c1"
  test readout: "Plant response rating, Corn"
  data value: 0
- smiles str: "CCNC(=S)c1cccc(NC(=O)c2nn(C(C)(C)C)nc2C)c1"
  test readout: "Plant response rating, Corn"
  data value: 0
- smiles str: "CCc1nn(C(C)C)nc1C(=O)Nc1cccc(C(=O)N(C)CC)c1"
  test readout: "Plant response rating, Corn"
  data value: 10
- smiles str: "CCN(CC)C(=O)c1cccc(NC(=O)c2cc(C(C)(C)C)nn2C)n1"
  test readout: "Plant response rating, Corn"
  data value: 0
- smiles str: "CCNC(=O)c1ccc(F)c(NC(=O)c2cc(C3(C)CC3)nn2CC)c1"
  test readout: "Plant response rating, Corn"
  data value: 30

Form field Plant response rating, Corn, entry "CCNC(=O)c1ccc(F)c(NC(=O)c2cn(C(C)(C)C)nc2CC)c1" : 10

Form field Plant response rating, Corn, entry "CCN(CC)C(=O)c1ccnc(NC(=O)c2cc(C(C)(C)C)nn2CC)c1" : 0

---

Test system: wild oat
experimental details: Test B postemergence herbicide test
Type: in vivo, Avena fatua
condition context: postemergence, 500 g ai/ha; visual rating, scale 0 (no effect) to 100 (complete control)
test readout: Oat, Wild plant response rating
Hey, just send me the number, nothing else.

In the examples that follow, each entry is paired with its recorded Oat, Wild plant response rating.
- smiles str: "CCc1nc(C(C)(C)C)sc1C(=O)Nc1cccc(C(=O)NC(C)(C)C)n1"
  tested system: "wild oat"
  Oat, Wild plant response rating: 0
- smiles str: "Cn1nc(C(C)(C)C)cc1C(=O)Nc1cccc(C#N)c1"
  tested system: "wild oat"
  Oat, Wild plant response rating: 30
- smiles str: "CCc1nc(C(C)(C)C)sc1C(=O)Nc1cccc(C(=O)N(C)CC)c1"
  tested system: "wild oat"
  Oat, Wild plant response rating: 50
- smiles str: "CC(=NO)c1cccc(NC(=O)c2nn(C(C)(C)C)cc2C(F)(F)F)c1"
  tested system: "wild oat"
  Oat, Wild plant response rating: 0
- smiles str: "CCNC(=O)c1ccc(F)c(NC(=O)c2sc(C(C)(C)C)nc2CC)c1"
  tested system: "wild oat"
  Oat, Wild plant response rating: 30
- smiles str: "CCc1nc(C(C)(C)C)sc1C(=O)Nc1cccc(C(=O)N(CC)CC)n1"
  tested system: "wild oat"
  Oat, Wild plant response rating: 0
- smiles str: "CCn1nc(C(C)(C)C)cc1C(=O)Nc1cccc(C(C)=O)c1"
  tested system: "wild oat"
  Oat, Wild plant response rating: 40
- smiles str: "CCc1nn(C(C)(C)C)cc1C(=O)Nc1cc(C(=O)N(C)CC)ccc1F"
  tested system: "wild oat"
  Oat, Wild plant response rating: 30

Attention now shifts to the item below.
Form field Oat, Wild plant response rating, entry "CCNC(=O)c1ccnc(NC(=O)c2nn(C(C)(C)C)cc2CC)c1" : 20

---

System: johnsongrass
experimental details: Test C pre-/postemergence herbicide test
Assay type: in vivo, Sorghum halepense
condition context: 62 g ai/ha; preemergence
Below, each entry is listed with its recorded Plant response rating (0 = no effect, 100 = complete control), Johnsongrass.
Hey, just send me the number, nothing else.

- smiles str: "CCn1nc(C(C)(C)C)cc1C(=O)Nc1cccc(C(=O)NC2CC2)c1"
  data value: 30
- smiles str: "C=CCn1nc(C(C)(C)C)cc1C(=O)Nc1cccc(C(=O)NCC)c1"
  data value: 55
- smiles str: "CC(=O)c1cccc(NC(=O)c2cc(C(C)(C)C)nn2CCF)c1"
  data value: 90
- smiles str: "CCNC(=O)c1cccc(NC(=O)c2cc(C(C)(C)C)nn2CC(F)(F)F)c1"
  data value: 0

Attention now shifts to the item below.
Form field Plant response rating (0 = no effect, 100 = complete control), Johnsongrass, entry "C=Cn1nc(C(C)(C)C)cc1C(=O)Nc1cccc(C(=O)N(CC)CC)c1" : 50

---

Tested on: lambsquarters
experimental details: Test B pre-/postemergence herbicide test
Format: in vivo, Chenopodium album
condition context: 500 g ai/ha; visual rating, 0 = no effect, 100 = complete control; preemergence
test readout: Plant response rating, Lambsquarters

- molecule: "CCn1nc(C(C)(C)C)cc1C(=O)Nc1ccnc(C(=O)N(C)C)c1"
  Plant response rating, Lambsquarters: 100
- molecule: "Cn1nc(C(C)(C)C)cc1C(=O)Nc1cccc(C(=O)NC2CC2)n1"
  Plant response rating, Lambsquarters: 80
- molecule: "CCn1nc(C(C)(C)C)cc1C(=O)Nc1ccnc(C(=O)N2CC=CC2)c1"
  Plant response rating, Lambsquarters: 100
- molecule: "CCc1nn(C(C)(C)C)cc1C(=O)Nc1cc(C(=O)N(C)CC)ccc1F"
  Plant response rating, Lambsquarters: 100
- molecule: "CCc1nc(C(C)(C)C)sc1C(=O)Nc1cccc(C(=O)N(CC)CC)n1"
  Plant response rating, Lambsquarters: 80

Form field Plant response rating, Lambsquarters, entry CCNC(=O)c1ccc(F)c(NC(=O)C2CC(C(C)(C)C)=NN2CC)c1 (racemic) : 100

Form field Plant response rating, Lambsquarters, entry "C=CCN(CC=C)C(=O)c1cncc(NC(=O)c2cc(C(C)(C)C)nn2CC)c1" : 90

Form field Plant response rating, Lambsquarters, entry "CCn1nc(C(C)(C)C)cc1C(=O)Nc1nc(C(=O)N2CC=CC2)ccc1F" : 100

---

Tested on: goosegrass
experimental details: Test C pre-/postemergence herbicide test
Assay type: in vivo, Eleusine indica
condition context: 62 g ai/ha; preemergence
test readout: Plant response rating (0 = no effect, 100 = complete control), Goosegrass
Hey, just send me the number, nothing else.

- smiles str: "CCOC(=O)c1cccc(NC(=O)c2cc(C(C)(C)C)nn2CC)c1"
  data value: 10
- smiles str: "C=CCn1nc(C(C)(C)C)cc1C(=O)Nc1cccc(C(=O)NCC)c1"
  data value: 60
- smiles str: "CCn1nc(C(C)(C)C)cc1C(=O)Nc1cccc(C(=O)NCC2CC2)c1"
  data value: 10
- smiles str: "CCCCOc1cccc(NC(=O)c2cc(C(C)(C)C)nn2CC)c1"
  data value: 40
- smiles str: "CCN1CCc2c(NC(=O)c3cc(C(C)(C)C)nn3CC)cccc2C1=O"
  data value: 10
- smiles str: "C#CCNC(=O)c1cccc(NC(=O)c2cc(C(C)(C)C)nn2CC)n1"
  data value: 0

Form field Plant response rating (0 = no effect, 100 = complete control), Goosegrass, entry "CCNC(=O)c1cccc(NC(=O)c2cc(C(C)(C)C)nn2CC(F)(F)F)c1" : 30

---

Tested on: giant foxtail
experimental details: Test B pre-/postemergence herbicide test
Assay type: in vivo, Setaria faberi
condition context: 500 g ai/ha; visual rating 0-100, 0 no effect, 100 complete control; preemergence
test readout: Plant response rating, Foxtail, Giant
Hey, just send me the number, nothing else.

In the examples that follow, each entry is paired with its recorded Plant response rating, Foxtail, Giant.
- compound: "CC(=O)c1cccc(NC(=O)c2cc(C(C)(C)C)nn2CCF)c1 [Compound 128]"
  Plant response rating, Foxtail, Giant: 60
- compound: "CC(=NO)c1cccc(NC(=O)c2cn(C(C)C)nc2C)c1 [Compound 180]"
  Plant response rating, Foxtail, Giant: 0

Form field Plant response rating, Foxtail, Giant, entry CC(=O)c1cccc(NC(=O)c2sc(C(C)(C)C)nc2C)c1 [Compound 196] : 0

---

Tested on: large crabgrass
experimental details: Test C pre-/postemergence herbicide test
Format: in vivo, Digitaria sanguinalis
condition context: 62 g ai/ha; preemergence; scale 0 to 100
test readout: Plant response rating, Crabgrass, Large
Hey, just send me the number, nothing else.

- smiles str: "CCN(CC)C(=O)c1ccnc(NC(=O)c2cc(C(C)(C)C)nn2CC)c1"
  Plant response rating, Crabgrass, Large: 0
- smiles str: "CCc1nc(C(C)(C)C)sc1C(=O)Nc1cccc(C(=O)N(CC)CC)c1"
  Plant response rating, Crabgrass, Large: 60
- smiles str: "CCN(CC)C(=O)c1cccc(NC(=O)c2sc(C(C)(C)C)nc2C)c1"
  Plant response rating, Crabgrass, Large: 10
- smiles str: "CCc1nc(C(C)(C)C)sc1C(=O)Nc1cccc(C(=O)NCC2CC2)c1"
  Plant response rating, Crabgrass, Large: 60
- smiles str: "CCN(CC)C(=O)c1cccc(NC(=O)c2cc(C(C)(C)C)nn2C)n1"
  Plant response rating, Crabgrass, Large: 0

Readout Plant response rating, Crabgrass, Large for "CCc1nn(C(C)C)nc1C(=O)Nc1cccc(C(=S)N(C)C)c1" , test system large crabgrass, was 85

Readout Plant response rating, Crabgrass, Large for "CCc1nn(C(C)C)nc1C(=O)Nc1cccc(C(=O)N2CCCCC2)c1" , test system large crabgrass, was 90

Provenance of the data: patent US20060069132A1
